Please provide measured GI50 for the entries that follow.
Test system: Ba/F3 cells expressing L858R/T790M/C797S (EGFR-LTC)
Experiment: Growth inhibition (GI50) of Ba/F3 cells expressing L858R/T790M/C797S (EGFR-LTC), Celltiter glo
Type: cell-based
Settings: Mus musculus, BaF3, 72 h

[in] Can you share its GI50? I mean this compound: COc1cc(N2CCC(N3CCN(C)CC3)CC2)c(C)cc1Nc1ncc(Cl)c(Nc2ccc3ncccc3c2NS(C)(=O)=O)n1
[out] 1 to 25 nM

[in] Can you share its GI50? I mean this compound: Cc1cc(Nc2ncc(Cl)c(Nc3ccc4c(c3)NCC4)n2)c(Cl)cc1N1CCC(N2CCN(C)CC2)CC1
[out] > 10000 nM

[in] Can you share its GI50? I mean this compound: COc1cc(N2CCC(N3CCCN(C)CC3)CC2)c(C)cc1Nc1ncc(Br)c(Nc2ccc(F)cc2NS(C)(=O)=O)n1
[out] 25 to 100 nM

[in] Can you share its GI50? I mean this compound: CC(=O)Nc1cc(Cl)c(Cl)cc1Nc1nc(Nc2cnc(N3CCC(N4CCN(C)CC4)CC3)c(F)c2)ncc1Cl
[out] 500 to 2000 nM

[in] Can you share its GI50? I mean this compound: COc1cc(N2CCC(N3CCN(C)CC3)CC2)c(C)cc1Nc1nnc(Cl)c(Nc2ccc(F)cc2NS(C)(=O)=O)n1
[out] 2000 to 10000 nM

[in] Can you share its GI50? I mean this compound: COc1cc(N2CCC(N3CCN(C)CC3)CC2)c(C)cc1Nc1nc(N)c(Cl)c(Nc2ccc(F)cc2NS(C)(=O)=O)n1
[out] 500 to 2000 nM

[in] Can you share its GI50? I mean this compound: COc1ccc(NS(C)(=O)=O)c(Nc2nc(Nc3cc(C)c(N4CCC(N5CCCC(N(C)C)C5)CC4)cc3Cl)ncc2Cl)c1 (stereo not shown)
[out] 100 to 500 nM

----------
System: Ba/F3 cells expressing L858R/T790M/C797S (EGFR-LTC)
Test: Growth inhibition (GI50) of Ba/F3 cells expressing L858R/T790M/C797S (EGFR-LTC), Celltiter glo
Type: cell-based
Settings: Mus musculus, BaF3, 72 h
Please provide measured GI50 for the entries that follow.

[in] Can you share its GI50? I mean this compound: Cc1cc(Nc2ncc(Br)c(Nc3ccc4nccnc4c3P(C)(C)=O)n2)c(Cl)cc1N1CCC(N2CCN(C)CC2)CC1
[out] 25 to 100 nM

[in] Can you share its GI50? I mean this compound: CN1CCN(C2CCN(c3ccc(Nc4ncc(Br)c(Nc5cc(Cl)ccc5NS(C)(=O)=O)n4)cc3F)CC2)CC1
[out] 25 to 100 nM

[in] Can you share its GI50? I mean this compound: CN1CCN(C2CCN(c3ncc(Nc4ncc(Br)c(Nc5ccc(F)cc5NS(C)(=O)=O)n4)cc3F)CC2)CC1
[out] 100 to 500 nM

[in] Can you share its GI50? I mean this compound: Cc1ccc(NS(C)(=O)=O)c(Nc2nc(Nc3cc(C)c(N4CCC(N5CCN(C)CC5)CC4)cc3Cl)ncc2Br)c1
[out] 1 to 25 nM

[in] Can you share its GI50? I mean this compound: COc1cc(N2CCC(N3CCN(C)CC3)CC2)c(Cl)cc1Nc1ncc(Cl)c(Nc2cc3c(cc2NS(C)(=O)=O)CCO3)n1
[out] 1 to 25 nM

[in] Can you share its GI50? I mean this compound: COc1cc(N2CCC(N3CCN(C)CC3)CC2)ccc1Nc1ncc(Cl)c(Nc2ccc3nccnc3c2NS(C)(=O)=O)n1
[out] 100 to 500 nM

[in] Can you share its GI50? I mean this compound: COc1nc(N2CCN(C3CC3)CC2)ccc1Nc1ncc(Br)c(Nc2ccc(F)cc2NS(C)(=O)=O)n1
[out] 2000 to 10000 nM

[in] Can you share its GI50? I mean this compound: CN1CCN(C2CCN(c3cc(Cl)c(Nc4ncc(Cl)c(Nc5cc6c(cc5N(C)S(C)(=O)=O)CCO6)n4)cc3Cl)CC2)CC1
[out] 100 to 500 nM

[in] Can you share its GI50? I mean this compound: Cc1cc(Nc2ncc(Br)c(Nc3ccc(F)cc3NS(C)(=O)=O)n2)c(Cl)cc1N1CCC(N2CCCN(C)CC2)CC1
[out] 25 to 100 nM

[in] Can you share its GI50? I mean this compound: COc1cc(N2CCC(N3CCC(N(C)C)C3)CC2)c(C)cc1Nc1ncc(Br)c(Nc2cc3c(cc2NS(C)(=O)=O)CCO3)n1 (centres unmarked)
[out] 1 to 25 nM

[in] Can you share its GI50? I mean this compound: COc1nc(N2CCC(N3CCN(C)CC3)CC2)ccc1Nc1ncc(Cl)c(N(c2ccccc2NS(C)(=O)=O)S(C)(=O)=O)n1
[out] 500 to 2000 nM

[in] Can you share its GI50? I mean this compound: Cc1cc(Nc2ncc(Br)c(Nc3cc(Cl)c(F)cc3NS(C)(=O)=O)n2)c(Cl)cc1N1CCC(N2CCN(C)CC2)CC1
[out] 1 to 25 nM

[in] Can you share its GI50? I mean this compound: COc1nc(N2C[C@@H](C)N(C)[C@@H](C)C2)ccc1Nc1ncc(Cl)c(Nc2ccc3nccnc3c2P(C)(C)=O)n1
[out] 500 to 2000 nM

[in] Can you share its GI50? I mean this compound: CN1CCN(C2CCN(c3cc(Cl)c(Nc4ncc(Cl)c(Nc5cc(Cl)ccc5N(C)S(C)(=O)=O)n4)cc3Cl)CC2)CC1
[out] 25 to 100 nM
